Origin of the recorded values: the C3SDB collision cross section collection

Condition summary: [M+H]+; instrument: TW; Major Mix IMS/Tof Calibration Kit (Waters)
Quantity: collision cross section (N2) (Å²)

{"Molecule": "CCN(CC)CC(=O)Nc1c(C)cccc1C", "Result unit": "Å²", "collision cross section (N2)": 157.7}
{"Molecule": "Clc1ccc2c(c1)CCc1cccnc1C2=C1CCNCC1", "Result unit": "Å²", "collision cross section (N2)": 175.5}
{"Molecule": "C[C@]12CC[C@H]3[C@@H](CCC4=CC(=O)CC[C@@H]43)[C@@H]1CC[C@@H]2O", "Result unit": "Å²", "collision cross section (N2)": 167.5}
{"Molecule": "CN(C)C(=O)C(CCN1CCC(O)(c2ccc(Cl)cc2)CC1)(c1ccccc1)c1ccccc1 [Loperamide]", "Result unit": "Å²", "collision cross section (N2)": 222.7}
{"Molecule": "CCN1CC(CCN2CCOCC2)C(c2ccccc2)(c2ccccc2)C1=O (stereo not drawn)", "Result unit": "Å²", "collision cross section (N2)": 183.4}
{"Molecule": "CN(C)CC/C=C1/c2ccccc2Sc2ccc(Cl)cc21", "Result unit": "Å²", "collision cross section (N2)": 170.1}
{"Molecule": "CN(C)CC/C=C1\\c2ccccc2CC(O)c2ccccc21 (stereo not drawn) [Amitriptylin-M (E)-10-hydroxy]", "Result unit": "Å²", "collision cross section (N2)": 167.6}
{"Molecule": "CCN(CC)CCOCCOC(=O)C1(c2ccccc2)CCCC1", "Result unit": "Å²", "collision cross section (N2)": 175.5}
{"Molecule": "CN(C)CCC=C1c2ccccc2COc2ccccc21 [Doxepin]", "Result unit": "Å²", "collision cross section (N2)": 164.3}
{"Molecule": "Cc1ccc2nc(-c3ccc(C(=O)O)cc3)c(CC(=O)N(C)C)n2c1", "Result unit": "Å²", "collision cross section (N2)": 184.4}
{"Molecule": "COCCCC/C(=N\\OCCN)c1ccc(C(F)(F)F)cc1", "Result unit": "Å²", "collision cross section (N2)": 177}
{"Molecule": "CC(CCc1ccc(O)cc1)NCCc1ccc(O)c(O)c1 (stereo not drawn)", "Result unit": "Å²", "collision cross section (N2)": 168.2}
{"Molecule": "COc1ccc2[nH]cc(CCN(C)C)c2c1", "Result unit": "Å²", "collision cross section (N2)": 150.3}
{"Molecule": "CN(C)CCCN1c2ccccc2Sc2ccccc21", "Result unit": "Å²", "collision cross section (N2)": 161.5}
{"Molecule": "NC(=O)N1c2ccccc2CC(=O)c2ccccc21 [Oxcarbazepine]", "Result unit": "Å²", "collision cross section (N2)": 153.8}
{"Molecule": "C=C[C@H]1C[N@@]2CC[C@H]1C[C@H]2[C@H](O)c1ccnc2ccc(OC)cc12", "Result unit": "Å²", "collision cross section (N2)": 177.4}
{"Molecule": "COC(=O)[C@@H]1[C@H]2C[C@H]3c4[nH]c5ccccc5c4CCN3C[C@@H]2CC[C@@H]1O", "Result unit": "Å²", "collision cross section (N2)": 186.5}
{"Molecule": "O=c1[nH]c2ccccc2n1C1CCN(CCCC(c2ccc(F)cc2)c2ccc(F)cc2)CC1 [Pimozide]", "Result unit": "Å²", "collision cross section (N2)": 214.4}

====

Condition summary: [M-H]-; instrument: TW; calibrated with phosphatidylcholines (ESI+) and phosphatidylethanolamines (ESI-), doubly charged cardiolipins calibrated with poly-DL-…
Quantity: collision cross section (N2) (Å²)

{"Molecule": "CCCCCC/C=C/CCCCCCCC(=O)O[C@H](CO)COP(=O)([O-])OCC[NH3+]", "collision cross section (N2), Å²": 203.66}
{"Molecule": "CCCCCC/C=C\\CCCCCCCC(=O)OC[C@H](COP(=O)(O)OC[C@@H](O)COC(=O)CCCCCCCCCCCCCCC)OC(=O)CCCCCCC/C=C\\CCCCCCCC", "collision cross section (N2), Å²": 322.71}
{"Molecule": "CCCCCCCC/C=C\\CCCCCCCC(=O)OC(COC(=O)CCCCCCCCCCCCCCCCC)COP(=O)(O)OCC(O)CO (stereo not drawn)", "collision cross section (N2), Å²": 276.25}
